Experiment: chemical genetic growth profiling, strain panel (AID 1159580);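 further: tested at 20 µM; growth read once vehicle control cultures reached saturation at 30 °C; 1 = growth at the plate median or of vehicle wells; lower values mean less growth of the strain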
Details: S. cerevisiae deletion strains, growth OD, locus YHR030C, strain SLT2, active compounds read low
Among all 5,500 compounds or so, about 2,000 (36%) were called active. Roughly 18% stayed inconclusive and do not appear here. The list shows a part of the results.

{"columns": ["compound", "normalized growth"],
 "data": [
  ["COc1ccc(-n2c(SCc3ccc(Br)cc3)nnc2-c2ccco2)cc1", 0.79],
  ["FC(F)(F)c1ccc(C2Sc3ccccc3N=C3c4ccccc4CC32)cc1 (stereo unspecified)", 0.97],
  ["COc1ccc(-c2c(C(=O)O)sc(SC)c2C#N)cc1", 1.01],
  ["C[C@]12CCC3C(CC[C@H]4C[C@H](O)CC[C@]34C)C1CCC2=O (stereo partly specified)", 0.63],
  ["CC(/C=C/c1ccccc1)=N/OC(=O)c1ccccc1Cl", 0.899],
  ["S=c1[nH]nc(-c2ccco2)n1-c1ccc2c(c1)OCCO2", 1.05]
]}
